test system: PPARg:RXRa IVT, anti-PPARg (NR concentration 270 nM, RXRa partner concentration 90 nM); experiment: PBM binding z-score (relative to random genomic background probes); higher = stronger binding; sequences stand for … in GC…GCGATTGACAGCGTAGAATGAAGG
assayMetric: PBM binding z-score
Reply briefly: the number, and no unit.

{"columns": ["querySequence", "PBM binding z-score"],
 "data": [
  ["CCTAGTTGGTCAAGGTCACACAAGCTATAGGTAC", 4.01]
]}

Give the reported value of PBM binding z-score for this record: `TCCAGTAGGTTAGTCGGGGCATTCAGCCAACATA` 3.02

* * *

test system: RXRa homodimer (NR concentration 180 nM); test: PBM binding z-score (relative to random genomic background probes); higher = stronger binding; sequences stand for … in GC…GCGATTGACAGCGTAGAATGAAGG
In this section, each of the sequences is paired with its reported PBM binding z-score.

Some sequences with known PBM binding z-score results, for comparison:
{"columns": ["querySequence", "PBM binding z-score"],
 "data": [
  ["ATATGTAGGTAAGCTGGGGTCATTCAGACTAGGC", 5.36],
  ["AGAATGAGGTTATACGTTGATCAGGGAAGAAAGT", 2.12]
]}

Continue with the sequence presented below.
Give the reported value of PBM binding z-score for this record: `AGAACGAGGGCAATGAGTTGATAGTACGGGTGGC` 0.933

* * *

In this section, each of the sequences is paired with its reported PBM binding z-score.
test system: THRa:RXRa (NR concentration 90 nM, RXRa partner concentration 90 nM); assay: PBM binding z-score (relative to random genomic background probes); higher = stronger binding; sequences stand for … in GC…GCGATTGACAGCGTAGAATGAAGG
Reply briefly: the number, and no unit.

Some sequences with known PBM binding z-score results, for comparison:
{"columns": ["querySequence", "PBM binding z-score"],
 "data": [
  ["CCTAGCAGGCCAGTGTCACTCAAGCATTTCGCTT", -0.213],
  ["ACTAGCAGGCCAAGTTTGGGTCACTCAGACAAAG", 2.33],
  ["ATCGAAAGGTCGTGGGGTGAGTATACAGAAAGGC", 3.62],
  ["CCTTGTTGGTCAAGGTCACACACGCTATAGGTAC", 4.31],
  ["TAGCCTAGGTCATGCGGGCCAGTCTAGTGTCGGC", 2.75]
]}

Give the reported value of PBM binding z-score for this record: `TCCAGTTGGTCAAAGGTCACACACTCGAAATGCG` 4.08

Give the reported value of PBM binding z-score for this record: `CAAACTAGGTCAAAGGTCTAAGTCGAGCCAACCA` 3

Give the reported value of PBM binding z-score for this record: `CCTACTGTGCCAAGGTCATTGATCAGTCAAAGCA` 3.68

Give the reported value of PBM binding z-score for this record: `CGTCCAAGGTCAAAGATCAGTGAAGAGATGACGG` 3.85

Give the reported value of PBM binding z-score for this record: `CAAACTAGGTCACGAAAGGTCATAGTCGAATGAC` 5.09

Give the reported value of PBM binding z-score for this record: `TCTGCTAGGTCGACGATGGTCAGCTAATCTGCTA` 0.669

Give the reported value of PBM binding z-score for this record: `CATACAGGGTCAGTTAGGCCAGAGTAGGGACGGC` 2.77

Give the reported value of PBM binding z-score for this record: `TCATATAGGTAAATGCTAGGTGAAAGTCCGATCT` 1.39

Give the reported value of PBM binding z-score for this record: `TCTTGTAGATCAAGCAGCTTAAGAAAGCCTGAGT` -0.48
